System: HCT-116
Assay: NCI tumour cell line growth inhibition, 48 h
The source made the active and inactive calls. No stated cut-off is given here; in the data, active = GI50 up to about 1.1 µM and inactive = higher.
Classes used: active, inactive

# COMPOUND, CAT
measured = [
    ("CC(=O)CC12NC(=O)N(C)N=C1N(C)C(=O)N(C)C2=O (stereo not drawn)", "inactive"),
    ("CC(=O)Oc1c2oc3cc(O)c(O)cc3c2c(OC(C)=O)c2oc3cc(O)c(O)cc3c12", "inactive"),
    ("c1ccc([B-]2(c3ccccc3)OCCc3cccc[n+]32)cc1", "inactive"),
    ("O/N=C/c1ncccc1C1OCCO1", "inactive"),
    ("Oc1ccc(I)c2cccnc12", "inactive"),
    ("Cc1nc(N)sc1C(=O)Nc1nc[nH]n1", "inactive"),
    ("CN(CCCN=C=S)CCCN1c2ccccc2CCc2ccccc21", "inactive"),
    ("CC1(C)CC(=O)c2[nH]c3ccccc3c2CC(=O)NCCc2cn1cn2", "inactive"),
    ("CCOC(=O)c1nc2ccc(Cl)cc2c2c1Cc1ccccc1-2", "inactive"),
    ("CCC1N2CCCCC2[C@@H]2c3[nH]c4ccccc4c3CCN12 (stereo partly drawn)", "inactive"),
    ("[C-]#[N+]C(C)(C)C[C@H]1CC(C)C2CCC(C)C3([N+]#[C-])CCC(=C)C1[C@H]23 (stereo partly drawn)", "active"),
    ("COc1ccc(CNC2=C(NC(C)=O)C(=O)c3ccccc3C2=O)cc1", "inactive"),
    ("CN(C)CCNC(=O)c1ccc2ccc3cccnc3c2n1", "inactive"),
    ("C/C(=N\\NC(=S)Nc1ccc(C(=O)O)cc1)c1ccccn1", "inactive"),
    ("O=C(CC1(O)C(=O)Nc2c(Cl)cc(Cl)cc21)c1ccc(Br)cc1Br (stereo not drawn)", "inactive"),
    ("COc1ccc(-n2nnc(C(N)=O)c2O)cc1", "inactive"),
    ("CC1(CO)OC(n2cnc3cncnc32)CC1O (stereo not drawn)", "inactive"),
    ("COc1cc2c(cc1OC)c1c(OC)c(OC)cc3c1c1c2sc(=S)n1CC3", "inactive"),
]

###

Tested on: DU-145
Assay: NCI tumour cell line growth inhibition, 48 h
Active and inactive are the calls of the source. No stated cut-off is given here; in the data, active = GI50 up to about 1.1 µM and inactive = higher.
Classes used: class 1 for active, class 0 for inactive

# COMPOUND, CAT
data = [
    ("O=C1/C(=C/c2ccc(Cl)cc2)Sc2scc(-c3cccc([N+](=O)[O-])c3)[n+]21", "class 0"),
    ("N#CC1CCCC2SC(F)(F)C(F)(F)C12 (centres undefined)", "class 0"),
    ("CC(=O)NC1C(OCc2ccccc2)OC(CO)C(O)C1OC(C)C(=O)NC(C(=O)N[C@@H](CCC(=O)NCCNCCNc1c2ccccc2nc2cccc([N+](=O)[O-])c12)C(N)=O)C(C)C (some centres undefined)", "class 0"),
    ("COc1ccc2c(c1)c(=Cc1ccc(N(C)C)cc1)c1cc(-c3ccccc3)[n+](C)n12", "class 1"),
    ("O=C1NC(=S)NC(=O)C1=Cc1ccc(-c2ccccc2)cc1", "class 0"),
    ("[N-]=[N+]=Nc1nc2ccccc2c(N=[N+]=[N-])c1Cl", "class 0"),
    ("Cc1n[nH]c(=O)n1N=C(c1ccccc1)c1ccccc1", "class 0"),
    ("N#CCCN(CCC#N)c1ccc(C(=N/c2ccc(Cl)cc2)/N=N/c2ccccc2)cc1", "class 0"),
    ("COc1cc2c(cc1OC)C1=C(C=O)c3ccc(OC)c(OC)c3C(O)N1CC2 (centres undefined)", "class 0"),
    ("O=C(Nc1ccccc1)c1cc(S(=O)(=O)NC2=Nc3ccc(Cl)cc3C(c3ccccc3)N2)c(SSc2cc(Cl)c(C(=O)Nc3ccccc3)cc2S(=O)(=O)NC2=Nc3ccc(Cl)cc3C(c3ccccc3)N2)cc1Cl (centres undefined)", "class 0"),
    ("Cc1nc(Nc2ccc(Cl)c(Cl)c2)sc1C(=O)/C=C/c1ccc2c(c1)OCO2", "class 0"),
    ("Cc1nc2ccccc2c(=O)n1NC(=S)Nc1ccc(Cl)cc1[N+](=O)[O-]", "class 0"),
    ("O=C1CC(C(COCc2ccccc2)OCc2ccccc2)CC(=O)N1 (centres undefined)", "class 0"),
    ("CCc1cc(Cc2cc(CC)c(NC(=O)C(=O)CC(=O)c3sc(-c4cccnc4)nc3C)c(CC)c2)cc(CC)c1NC(=O)C(=O)CC(=O)c1sc(-c2cccnc2)nc1C", "class 0"),
    ("C=C(C)C(=O)OC1CC2=CC(CC3(C)OC3C3OC(=O)C(=C)C13)OC2=O (centres undefined)", "class 0"),
    ("c1ncn(C23C4C5C6C4C2C6C53)n1 (centres undefined)", "class 0"),
    ("COc1ccc2nc3cc([N+](=O)[O-])ccc3c(Nc3ccc(S(=O)(=O)Nc4ncccn4)cc3)c2c1", "class 0"),
    ("COc1cccc(-c2ccc3c4c2O[C@H]2C(=O)CC[C@@]5(O)[C@@H](C3)N(CC3CC3)CC[C@]425)c1", "class 0"),
    ("CCOC(=O)C(NC(=O)OC(C)(C)C)C(=O)OCC", "class 0"),
]
